Items are presented alongside their recorded kon.
molecular target: T1, Aβ oligomers prepared from Amyloid β-protein, Human 1-42 peptide (human, UniProt P05067 672-713); assay: SPR (Biacore T100), Aβ oligomers amine-coupled to CM5 chip, antibody injected, Bivalent Analyte model (ka1)
T1 construct: domain: Amyloid β-protein 1-42; Oligomeric preparation (HFIP, DMSO, acetic acid solution pH 4.5, overnight at 4 °C); Amine-coupled to a CM5 chip; also called amyloid β oligomer
T1 sequence (P05067 672-713 limits assumed): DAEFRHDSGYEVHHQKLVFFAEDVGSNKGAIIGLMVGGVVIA
Unit M⁻¹ s⁻¹ implied. Number only.

The cases that follow already have their kon on record.
anti-Aβ oligomer humanized antibody HV5aLV0 (antibody, V domains shown, also called HV5aVL0) VH: DVQLVESGGGVVQPGRSLRLSCAASGFTFSSFGMHWVRQAPGKGLEWVAYISSGSSTIYYADTVKGRFTISRDNSRSTLFLQMNSLRGEDTAMYYCAGTGTRAYWGQGTLVTVSS VL: DIVMTQSPLSLPVTPGEPASISCRSSQSIVHSNGNTYLEWYLQKPGQSPQLLIYKVSNRFSGVPDRFSGSGSGTDFTLKISRVEAEDVGVYYCFQGSHVPPTFGQGTKLEIK
11000
anti-Aβ oligomer humanized antibody HV6LV3 (antibody, V domains shown) VH: DVQLVESGGGVVQPGRSLRLSCAASGFTFSSFGMHWVRQAPGKGLEWVAYISSGSSTIYYADTVKGRFTISRDNSRNTLFLQMNSLRGEDTAMYYCAGTGTRAYWGQGTLVTVSS VL: DVVMTQSPLSLPVTLGEPASISCRSSQSIVHSNGNTYLEWYLQKPGQSPKLLIYKVSNRFSGVPDRFSGSGSGTDFTLKISRVEAEDVGVYYCFQGSHVPPTFGQGTKLEIK
8200
anti-Aβ oligomer humanized antibody HV0LV0 (antibody, V domains shown, purified on Prosep vA; also called HV0LVV0; 4H5HV0 + 4H5LV0) VH: DVQLVESGGGVVQPGRSLRLSCAASGFTFSSFGMHWVRQAPGKGLQWMVYISSGSSTIYYADTVKGRFTISRDNSRSTLFLQMNSLRGEDTAVYYCARTGTRAYWGQGTLVTVSS VL: DIVMTQSPLSLPVTPGEPASISCRSSQSIVHSNGNTYLEWYLQKPGQSPQLLIYKVSNRFSGVPDRFSGSGSGTDFTLKISRVEAEDVGVYYCFQGSHVPPTFGQGTKLEIK
14000

Query binder follows.
Query: kon lookup needed for anti-Aβ oligomer humanized antibody HV5aLV1b (antibody, V domains shown) VH: DVQLVESGGGVVQPGRSLRLSCAASGFTFSSFGMHWVRQAPGKGLEWVAYISSGSSTIYYADTVKGRFTISRDNSRSTLFLQMNSLRGEDTAMYYCAGTGTRAYWGQGTLVTVSS VL: DIVMTQSPLSLPVTLGEPASISCRSSQSIVHSNGNTYLEWYLQKPGQSPQLLIYKVSNRFSGVPDRFSGSGSGTDFTLKISRVEAEDVGVYYCFQGSHVPPTFGQGTKLEIK , thanks.
Reply: 9800
